From: PubChem BioAssay AID504707

# assayedTarget: cAMP-dependent protein kinase type I-alpha regulatory subunit (Bos taurus) + cAMP-dependent protein kinase catalytic subunit beta (Mus musculus) (UniProt P00514+P68181)
# assaySummary: compounds dissociating PKAc from R1A subunit – biochemical, fluorescence polarization, Cy5-IP20, bovine R1A, mouse PKAc, primary screen (AID 504707);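 also: higher means more PKAc released from R1A so a rise in polarization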
# recordedConditions: PKA-R1A dissociation, at 11.4 µM, scaled: DMSO 0%, 113 µM cGMP 100%
The campaign covered roughly 340,000 compounds. About 280 (0.082%) were called active.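 The calls were made as follows: active = percent activation above the mean of all tested compounds plus 3 SD (cut at about 19% in these data); inactive = the rest.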 Many of the other results were omitted from the sample, so actives are more common in it than they were.
Please state which outcome applies, choosing from active, inactive

{"columns": ["compound", "discreteLabel"],
 "data": [
  ["Cc1ccccc1OS(=O)(=O)c1cccc([N+](=O)[O-])c1", "inactive"],
  ["C[C@H]1CN([C@@H](C)CO)C(=O)CCCn2cc(nn2)CO[C@@H]1CN(C)S(=O)(=O)c1ccc(-n2cccn2)cc1", "inactive"],
  ["CN(Cc1c(F)cccc1Cl)C(=O)COC(=O)Cn1cnc2ccccc2c1=O", "inactive"],
  ["C[C@H](CO)N1C[C@H](C)[C@@H](CN(C)Cc2ccc3c(c2)OCO3)OCc2cnnn2CCCC1=O", "inactive"],
  ["O=C(Nc1ccc2c(c1)[C@@H]1C[C@@H](CC(=O)N3CCCCC3)O[C@@H](CO)[C@@H]1O2)NC1CCCCC1", "active"]
]}

*Q* Dear all, I need the recorded test outcome for Cc1ccc(S(=O)(=O)N2C[C@H]3C(=O)C[C@@H](c4cccc5ccccc45)N(S(=O)(=O)c4ccc(C)cc4)[C@H]3C[C@H]2c2ccc(Cl)cc2)cc1 , thank you.
*A* inactive

###

Provide the recorded activation for the entries that follow.
# assayedTarget: cAMP-dependent protein kinase type I-alpha regulatory subunit (Bos taurus) + cAMP-dependent protein kinase catalytic subunit beta (Mus musculus) (UniProt P00514+P68181)
# assaySummary: compounds dissociating PKAc from R1A subunit – biochemical, fluorescence polarization, Cy5-IP20, bovine R1A, mouse PKAc, primary screen (AID 504707);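 also: higher means more PKAc released from R1A so a rise in polarization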
# recordedConditions: PKA-R1A dissociation, at 11.4 µM, active compounds read high, scaled: DMSO 0%, 113 µM cGMP 100%
The campaign covered roughly 340,000 compounds. About 280 (0.082%) were called active. Only a selection was taken, and actives are over-represented in it overall.
One number for each entry, in %.

{"columns": ["compound", "measuredEndpoint", "obsValue"],
 "data": [
  ["CN(C)C(CNC(=O)c1cccc(S(=O)(=O)N2CCc3ccccc3C2)c1)c1ccccc1 (stereo not given)", "activation", -0.91],
  ["COn1c(=O)c(=O)n(OC)c2ccccc21", "activation", -14.3],
  ["C[C@H]1CN([C@@H](C)CO)C(=O)CCCn2nncc2CO[C@@H]1CN(C)S(=O)(=O)c1cccc(C#N)c1", "activation", -0.38],
  ["O=C(COc1ccc(S(=O)(=O)N2CCCC2)cc1[N+](=O)[O-])N1CCCCC1", "activation", -0.2]
]}

Record activation per entry; entries follow.
1. COc1ccc(S(=O)(=O)N(C)C[C@H]2OCc3cnnn3CCCC(=O)N([C@H](C)CO)C[C@H]2C)cc1
2. OCC1OC(n2cnc3c(N4CCCC4)ncnc32)C(O)C1O (stereo not given)

*A*
[9.03, 2.45]

Record activation per entry; entries follow.
1. CCOC(=O)c1cc(-c2sc(NC(=O)c3ccccc3)nc2C)n(-c2ccc(Br)cc2)n1
2. Cc1ccnc(SC2CC(=O)N(c3ccccc3)C2=O)n1 (stereo not given)
3. N#CCCC(C#N)(c1cccnc1)N1CCOCC1 (stereo not given)
4. CCCc1ccc(S(=O)(=O)N2CCN(C(=O)c3cc(C)on3)CC2)cc1
5. CCc1cc(C(=O)N(CC)CC(=O)Nc2c(F)cccc2F)sc1C
6. CC(C)CCNc1nc(N2CCCC2)c2c(c1C#N)CCN(C)C2
7. CCC(C)C1(C2CCCC2)NC(=O)NC1=O (stereo not given)
8. COc1ccc(NC(=O)C[C@H]2C(=O)N(CCc3ccccc3)C[C@@H]2C)cc1

*A*
[4.25, 8.38, 9.19, 8.59, 2.41, 6.18, -4.54, -0.95]

*Q* Supply recorded activation for CC1CCC2(CC1)NC(=O)N(CC(=O)NCc1ccco1)C2=O (stereo not given) here.
*A* -3.37
